- assayed system: UniProt O43613
- Sequence (O43613 whole entry): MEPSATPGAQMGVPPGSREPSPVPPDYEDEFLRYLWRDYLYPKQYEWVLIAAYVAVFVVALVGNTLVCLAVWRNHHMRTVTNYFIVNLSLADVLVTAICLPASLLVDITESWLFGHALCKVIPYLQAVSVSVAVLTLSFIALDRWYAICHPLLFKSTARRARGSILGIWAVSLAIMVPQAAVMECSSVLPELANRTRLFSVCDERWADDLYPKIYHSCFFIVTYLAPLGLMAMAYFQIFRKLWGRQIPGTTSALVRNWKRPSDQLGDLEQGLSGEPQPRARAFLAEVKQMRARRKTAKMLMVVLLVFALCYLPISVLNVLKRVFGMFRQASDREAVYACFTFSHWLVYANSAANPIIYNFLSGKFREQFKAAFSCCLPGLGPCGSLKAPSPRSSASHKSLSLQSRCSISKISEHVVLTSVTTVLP
- experimental details: Radioligand displacement, [3H]SB674042
- condition description: Ki [nM ± SD]
observation type: Ki

structure_as_smiles=COc1ccccc1OCCNCCCOc1ccc2c(c1)NC(=O)CO2 observation_type=Ki result="> 50000 nM"

###

- assayed system: opioid δOR (Homo sapiens)
- Sequence (P41143 whole entry): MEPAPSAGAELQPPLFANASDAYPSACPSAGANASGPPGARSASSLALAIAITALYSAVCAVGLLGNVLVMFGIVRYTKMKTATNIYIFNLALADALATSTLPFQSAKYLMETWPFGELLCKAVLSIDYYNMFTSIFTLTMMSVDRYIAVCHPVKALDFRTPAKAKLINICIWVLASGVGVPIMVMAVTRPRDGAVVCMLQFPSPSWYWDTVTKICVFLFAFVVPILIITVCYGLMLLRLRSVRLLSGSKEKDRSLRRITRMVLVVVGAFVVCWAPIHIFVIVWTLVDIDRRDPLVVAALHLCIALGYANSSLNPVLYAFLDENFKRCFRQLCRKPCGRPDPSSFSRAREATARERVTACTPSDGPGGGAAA
- experimental details: Radioligand displacement, [3H]diprenorphine
- condition description: Ki [nM ± SD]
observation type: Ki (nM)

structure_as_smiles=COc1ccccc1OCCNCCCOc1ccc2c(c1)NC(=O)CO2 assayed_system="opioid δOR (Homo sapiens)" readout_number=24000

###

- assayed system: adrenergic β1 (Homo sapiens, UniProt P08588)
- Sequence (P08588 whole entry): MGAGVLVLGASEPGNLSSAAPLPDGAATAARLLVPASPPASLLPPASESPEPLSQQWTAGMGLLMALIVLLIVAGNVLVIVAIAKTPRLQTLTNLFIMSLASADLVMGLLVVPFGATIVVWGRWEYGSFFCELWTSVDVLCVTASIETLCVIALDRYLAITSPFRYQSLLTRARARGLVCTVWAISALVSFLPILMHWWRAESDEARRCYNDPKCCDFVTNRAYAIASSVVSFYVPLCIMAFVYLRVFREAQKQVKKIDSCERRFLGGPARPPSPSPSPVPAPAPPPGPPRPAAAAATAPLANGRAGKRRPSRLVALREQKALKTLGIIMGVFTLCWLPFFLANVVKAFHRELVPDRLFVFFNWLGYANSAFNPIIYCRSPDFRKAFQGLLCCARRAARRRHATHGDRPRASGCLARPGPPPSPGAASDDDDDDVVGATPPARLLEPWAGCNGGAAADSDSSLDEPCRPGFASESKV
- experimental details: Radioligand displacement, [3H]CGP12177
- condition description: pKi
observation type: Ki (µM)

structure_as_smiles=COc1ccccc1OCCNCCCOc1ccc2c(c1)NC(=O)CO2 observation_type=Ki readout_number=1.63

Every entry's value here was drawn from paper PMC12175894.
